subject of test: T1, recombinant human IL-25 protein (human, UniProt Q9H293 33-177)
T1 sequence: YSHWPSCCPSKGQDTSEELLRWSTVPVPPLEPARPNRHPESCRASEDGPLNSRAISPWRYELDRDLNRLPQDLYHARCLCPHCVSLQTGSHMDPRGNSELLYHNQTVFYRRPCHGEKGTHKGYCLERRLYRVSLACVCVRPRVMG
run description: cell-based or functional assay
Recorded measurements of IC50, IL-25 induced IL-5 production in human PBMC, one per entry
Quick note: give the figure in nM, leave out the unit.

Identify IC50, IL-25 induced IL-5 production in human PBMC associated with the binder IL25Ab3 (antibody, V domains shown, detected with anti-human IgG or anti-human kappa reagents; also called anti-IL-25Ab3; mouse origin of anti-IL-25 specific antibody) VH: EVQLQQSGPELVKPGGSVRISCKASGYSFTGYTMNWVKQSHGKNLEWIGLINPDNGGTSHKQRFMGKATLTVDKSSSTAYMELLSLTSEDSAVYYCAREGYYGPSPFHHYAMDYWGQGTSVTVSS VL: DIQMTQTTSSLSASLGDRVTISCSASQDISNYLNWYQQKPDGTIKLLIYYTSTLHSGVPSRFSGSGSGTDYSLTISNLEPEDIATYYCQQYSKLPYTFGGGTKLEIK 0.16

Check the records and state IC50, IL-25 induced IL-5 production in human PBMC for IL25Ab2 (antibody, V domains shown) VH: QVTLKESGPGILQPSQTLSLTCSFSGFSLSTSGMGVGWIRQPSGKGLEWLAHIWWDDVKQYNPALQSRLTISKDTSSSQVFLKIASVDIADIATYYCARIGPVHHGFPYWGQGALVTVSS VL: QIVLTQSPAIMSAFPGEKVTMSCSASSSVNYMYWHQQKPGSSPRLLIYDTSNLASGVPVRFSGSGSGTSYSLTISRMEAEDAATYYCQQWTSYPPMYTFGGGTKLEIK 0.14

Hello, please tell me recorded IC50, IL-25 induced IL-5 production in human PBMC for this one: IL25Ab1 (antibody, V domains shown) VH: QVQLKESGPGLVAPSQSLSITCTVSGFSLTDYGINWVRQPPGKGLEWLGMIWGDGVTHYNSVLKSRLSISKDNSMSQIFLKMNSLQTDDTARYYCARTLFYDGTLYYYAMDYWGQGTSVTVSS VL: QIVLTQSPATMSASPGEKVTMTCSASSSVTYMYWYQQKTGSSPRLLIYDTPNLASGVPVRFSGSGSGTSYSLTISRVEAEDAATYYCQQWSSYPHTWTFGGGTKLEIK 0.12

Provide IC50, IL-25 induced IL-5 production in human PBMC value for the following binder: IL25Ab5 (antibody, V domains shown) VH: QVQLQQWGAGLLKPSETLSLTCAVYGGSFSAYYWSWIRQSPGKGLEWIGEINHGGNTNYSPSLKSRVTISVDTSKSQFSLKLSSVTAADTAAYYCARGPGITSWAFDFWDQGTMVTVSS VL: DIQMTQSPSSLSASVGDRVTIACQASQDINNYLNWYQQKPGKAPKLLIYDASNLETGVPSRFSGNGSGTDFTFTISSLQPEDIATFYCQQYDTLPYTFGQGTKLEIR 0.26

Hey, just so you know, these numbers are from patent US20260242458A1.
